- Test system: Caco-2
- METHOD_SUMMARY: cell viability relative to DMSO; higher = less toxic
- RUN_PARAMETERS: 72 h; 100 nM
The threshold is 90%. Values of cell viability beneath it are tagged True; values meeting or exceeding it are tagged False.

Study these solved cases before continuing.
Req: Would you kindly verify if cell viability of Cc1oc(-c2ccccc2)nc1CCC(=O)c1ccc(CC2SC(=O)NC2=O)cc1 (centres undefined) is strictly less than 90%?
Resp: False

Req: Answer whether the molecule Cc1ccc2c(c1)c1c(n2CCc2ccc(C)nc2)CCN(C)C1 [latrepirdine] has cell viability strictly less than 90%
Resp: False

Req: # TODO verify cell viability < 90% strictly for this molecule: `Cc1cccc(C)c1OCC(=O)N[C@@H](Cc1ccccc1)[C@@H](O)C[C@H](Cc1ccccc1)NC(=O)[C@H](C(C)C)N1CCCNC1=O`
Resp: False

Req: Would you kindly verify if cell viability of `CC(C)(C(=O)NCC(F)(F)C(F)(F)F)C(=O)N[C@@H]1C(=O)Nc2ccccc2-c2ccccc21` is strictly less than 90%?
Resp: False

Req: Consider NCC(CC(=O)O)c1ccccc1 (centres undefined) . Does its cell viability lie strictly below 90%?
Resp: False

Now for another entry.
Req: Consider the molecule `NNC(=O)CN1C(=O)CN=C(c2ccccc2)c2cc(Br)ccc21` . Is its cell viability strictly less than 90%?
Resp: False

###

# cell viability per entry
- Test system: HepG2
- METHOD_SUMMARY: cell viability relative to DMSO; higher = less toxic
- RUN_PARAMETERS: 72 h; 10 nM
Write the number in % without appending the unit.

cell viability for HepG2 with input CC[C@@H](Nc1c(Nc2cccc(C(=O)N(C)C)c2O)c(=O)c1=O)c1ccc(C)o1 [navarixin] equals 87.4

cell viability value, target or system HepG2, for CO[C@H]1C[C@H](O[C@H]2[C@H](C)O[C@@H](O[C@@H]3/C(C)=C/C[C@@H]4C[C@@H](C[C@]5(C=C[C@H](C)[C@@H](C6CCCCC6)O5)O4)OC(=O)[C@@H]4C=C(C)[C@@H](O)[C@H]5OC/C(=C\C=C\[C@@H]3C)[C@]54O)C[C@@H]2OC)O[C@@H](C)[C@@H]1O [doramectin] : 104

Assay HepG2, sample COc1cc2c(NC3CCN(C(C)C)CC3)nc(C3CCCCC3)nc2cc1OCCCN1CCCC1 [UNC0638] , cell viability read: 103

Others:
Summary line: CCC(=O)O[C@H]1[C@H](O[C@@H]2[C@@H](C)[C@H](O[C@H]3C[C@@](C)(OC)[C@@H](O)[C@H](C)O3)[C@@H](C)C(=O)O[C@H](CC)[C@@](C)(O)[C@H](O)[C@@H](C)C(=O)[C@H](C)C[C@@]2(C)O)O[C@H](C)C[C@@H]1N(C)C [erythromycin-estolate] , HepG2, reported cell viability = 104

The compound NS(=O)(=O)c1ccc(NC(=O)Nc2ccc(F)cc2)cc1 [U-104] , when measured on HepG2, yielded cell viability of 106

###

- System: Vero E6
- METHOD_SUMMARY: cell viability relative to DMSO; higher = less toxic
- RUN_PARAMETERS: 72 h; 1 nM
cell viability reference
Numbers only; they are read as %.

Memo: CCS(=O)(=O)Nc1ccc2c(c1)/C(=C(/Nc1ccc(CN3CCCCC3)cc1)c1ccccc1)C(=O)N2 [hesperadin] , reported cell viability: 92.7

Reported cell viability ( COCCN(C(=O)c1cc(OC)c(OC)c(OC)c1)c1nc(-c2ccccc2)cs1 [eact] ) = 94.4

// cell viability value for COc1ccccc1OCCNCC(O)COc1cccc2[nH]c3ccccc3c12 (centres undefined) [carvedilol] : 100

Record summary for `Nc1ncc(Cc2ccc(Br)cc2)s1` : reported cell viability = 99.9

In plain terms, N=C(N)c1ccc(-c2ccc(-c3ccc(C(=N)N)cc3)o2)cc1 [furamidine] has a documented cell viability of 99.7

Next:
So, CC(C)Nc1cccnc1N1CCN(C(=O)c2cc3cc(NS(C)(=O)=O)ccc3[nH]2)CC1 [delavirdine] ? Its cell viability was 92.2

Short answer for CCN(CC)CCOc1ccc(Cc2ccccc2)cc1 [DPPE] : cell viability was 108

According to the records, this molecule `O=C(Nc1ccc(Cl)nc1)c1ccc(Cl)cc1` displays cell viability of 95.4

###

- Test system: HepG2
- METHOD_SUMMARY: cell viability relative to DMSO; higher = less toxic
- RUN_PARAMETERS: 72 h; 1000 nM
TEST_READOUT: cell viability (%)
The response must be a number in % with no trailing unit.

Looking up `COc1cc2c(cc1F)C(c1ccccc1Cl)=Nc1c(n[nH]c1C)N2` , I see its cell viability listed as 63.2

***
Measured cell viability, CN/C(=N\c1ccc(C2=NNC(=O)CC2C)cc1)NC#N (configuration not stated) : 107

Recorded cell viability (compound O=C1NC(=O)C(=Cc2ccc(-c3ccc(F)cc3)o2)S1 (stereo in doubt) ): 94

Per the records, this compound ( O=C(CC1NCCCC1O)Cn1cnc2cc(Br)c(Cl)cc2c1=O (configuration not stated) ) has cell viability equal to 2.9

// recorded cell viability for NCC(CC(=O)O)c1ccccc1 (configuration not stated) : 106

The compound listed as `CC(C)(N)C(=O)N[C@H](COCc1ccccc1)C(=O)N1CCC2(CC1)CN(S(C)(=O)=O)c1ccccc12` has a reported cell viability of 98

// recorded cell viability for `Cc1cc(NC(=O)NCCN2CCC(O)(Cc3ccccc3)CC2)c2ccccc2n1` : 99.7

cell viability measured on `Nc1ccc(S(=O)(=O)c2ccc(N)cc2)cc1` = 106

The compound CC(C)(C)C1CCc2c(sc(NC(=O)c3ccco3)c2C(=O)O)C1 (configuration not stated) showed cell viability equal to 87.2

response.value for `O=P(O)(O)C(Cl)(Cl)P(=O)(O)O` (field: cell viability) = 101

Reported cell viability of `NS(=O)(=O)c1ccc(NC(=O)Nc2ccc(F)cc2)cc1` : 89.8

Looking up `N#Cc1c(N)nc(SCC(N)=O)c(C#N)c1-c1ccc(OCC2CC2)cc1` , I see its cell viability listed as 102

The measured cell viability associated with `CC(C)OC(=O)[C@H](C)N[P@@](=O)(OC[C@H]1O[C@@H](n2ccc(=O)[nH]c2=O)[C@](C)(F)[C@@H]1O)Oc1ccccc1` reads 109

###

- System: Caco-2
- METHOD_SUMMARY: cell viability relative to DMSO; higher = less toxic
- RUN_PARAMETERS: 72 h; 1000 nM
TEST_READOUT: cell viability (%)
State the answer as a number, implicitly in %.

// worked examples, cell viability included
cell viability in this record for C/C(O)=C(\C#N)C(=O)Nc1ccc(C(F)(F)F)cc1 [teriflunomide] : 95.1

# cell viability (compound: CC(=O)N[C@@H](CC(C)C)C(=O)O [acetyl-l-leucine] ) is 80.3

The measured cell viability associated with Fc1ccc(Cn2c(NC3CCNCC3)nc3ccccc32)cc1 [tecastemizole] reads 106

Form field cell viability, entry O=C(Oc1ccccc1)c1ccccc1O [phenyl-salicylate] : 97.1

Noted for COc1cc2c(CCNC(C)=O)c[nH]c2cc1Cl [6-chloromelatonin] : its cell viability reads 98.1

compound CCC(=O)O[C@H]1[C@H](O[C@@H]2[C@@H](C)[C@H](O[C@H]3C[C@@](C)(OC)[C@@H](O)[C@H](C)O3)[C@@H](C)C(=O)O[C@H](CC)[C@@](C)(O)[C@H](O)[C@@H](C)C(=O)[C@H](C)C[C@@]2(C)O)O[C@H](C)C[C@@H]1N(C)C [erythromycin-estolate] , cell viability observed: 99.4

Entry CCOC(=O)[C@H](CCc1ccccc1)N[C@@H](C)C(=O)N1C(=O)N(C)C[C@H]1C(=O)O [imidapril] — recorded cell viability = 97.6

// cell viability value for O=c1cc[nH]c(=S)[nH]1 [2-thiouracil] : 99

Consider Cc1cccc(C)c1OCC(=O)N[C@@H](Cc1ccccc1)[C@@H](O)C[C@H](Cc1ccccc1)NC(=O)[C@H](C(C)C)N1CCCNC1=O [Lopinavir] . Its measured cell viability is 101

Value of cell viability reported for the compound N=C(N)N/N=C/c1c(Cl)cccc1Cl [guanaben-acetate] is 95.4

Further cases:
Short answer for Cc1cc(C(C)(C)CC(C)(C)C)ccc1OCCOCC[N+](C)(C)Cc1ccccc1 [methylbenzethonium-chloride] : cell viability was 85

The compound listed as CCCCNC(=O)NS(=O)(=O)c1ccc(C)cc1 [tolbutamide] has a reported cell viability of 96.3

###

- Test system: U2OS
- METHOD_SUMMARY: cell viability relative to DMSO; higher = less toxic
- RUN_PARAMETERS: 72 h; 1 nM
TEST_READOUT: cell viability (%)
Please state the figure in %; there is no need to write the unit.

Guide cases for cell viability, answers given:
Record `NC(=O)[C@@H](CC1CC1)[C@@H](CCC(F)(F)F)C(=O)N[C@H]1N=C(c2ccccc2)c2cccc(F)c2NC1=O` / U2OS, cell viability recorded as 99

U2OS cell viability of O=C(O)c1ccc(-c2ccc3cc(O)c(C45CC6CC(CC(C6)C4)C5)cc3c2)cc1 [CD-1530] is 98.2

Record Cc1c2oc3c(C)ccc(C(=O)N[C@@H]4C(=O)N[C@@H](C(C)C)C(=O)N5CCC[C@H]5C(=O)N(C)CC(=O)N(C)[C@@H](C(C)C)C(=O)O[C@@H]4C)c3nc-2c(C(=O)N[C@@H]2C(=O)N[C@@H](C(C)C)C(=O)N3CCC[C@H]3C(=O)N(C)CC(=O)N(C)[C@@H](C(C)C)C(=O)O[C@@H]2C)c(N)c1=O [actinomycin-d] has U2OS cell viability equal to 105

Field cell viability (U2OS), entry COC1(C2=NCCN2)COc2ccccc2O1 (centres undefined) : 96.2

Param item: COc1cc2c(cc1OC)CN(C(=O)/C=C/c1c(-c3ccccc3)n(C)c3ncccc13)CC2 [SIS3] ; param system: U2OS; output cell viability: 99

Further cases:
Query CC[C@H]1[C@@H]2C[C@H]3[C@@H]4N(C)c5ccccc5[C@]45C[C@@H]([C@@H]2[C@H]5O)N3[C@@H]1O [ajmaline] on U2OS; cell viability returned: 96

Form field cell viability for item Cc1c2oc3c(C)ccc(C(=O)N[C@@H]4C(=O)N[C@H](C(C)C)C(=O)N5CCC[C@H]5C(=O)N(C)CC(=O)N(C)[C@@H](C(C)C)C(=O)O[C@@H]4C)c3nc-2c(C(=O)N[C@@H]2C(=O)N[C@H](C(C)C)C(=O)N3CCC[C@H]3C(=O)N(C)CC(=O)N(C)[C@@H](C(C)C)C(=O)O[C@@H]2C)c(N)c1=O [dactinomycin] on U2OS: 98.8

Simply: N#CN=C(NCCCCCCOc1ccc(Cl)cc1)Nc1ccncc1 [GMX1778] , U2OS, cell viability = 102

The measured cell viability that Cc1ccc2c(c1)c1c(n2CCc2ccc(C)nc2)CCN(C)C1 [latrepirdine] showed for U2OS is 100
